Assay: total protein half-life in vivo (active degradation + dilution); higher = more stable protein
Conditions: wild type E. coli NCM3722; growth: C-lim chemostat; doubling time 6 h
observed.property: total protein half-life in vivo (h)
Kindly answer with a numeric value in h, unit omitted.

MMQPVINAPEIATAREQQLFNGKNFHVFIYNKTESISGLHQHDYYEFTLVLTGRYFQEINGKRVLLERGDFVFIPLGSHHQSFYEFGATRILNVGISKRFFEQHYLPLLPYCFVASQVYRTNNAFLTYVETVISSLNFRETGLEEFVEMVTFYVINRLRHYREEQVIDDVPQWLKSTVEKMHDKEQFSESALENMVALSAKSQEYLTRATQRYYGKTPMQIINEIRINFAKKQLEMTNYSVTDIAFEAGYSSPSLFIKTFKKLTSFTPKSYRKKLTEFNQ ... 1.89
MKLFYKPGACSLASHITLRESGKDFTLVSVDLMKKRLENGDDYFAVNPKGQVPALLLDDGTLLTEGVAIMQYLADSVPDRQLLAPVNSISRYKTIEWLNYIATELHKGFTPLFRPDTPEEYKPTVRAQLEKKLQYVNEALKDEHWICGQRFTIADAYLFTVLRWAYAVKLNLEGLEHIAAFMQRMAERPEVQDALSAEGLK [P0A9D2] ... 5.69
MRYRIFLLFFFALLPTSLVWAAPAQRAFSDWQVTCNNQNFCVARNTGDHNGLVMTLSRSAGAHTDAVLRIERGGLKSPEASEGEIAPRLLLDGEPLALSGDKWRISPWLLVTDDTATITAFLQMIQEGKAITLRDGDQTISLSGLKAALLFIDAQQKRVGSETAWIKKGDEPPLSVPPAPALKEVAVVNPTPTPLSLEERNDLLDYGNWRMNGLRCSLDPLRREVNVTALTDDKALMMISCEAGAYNTIDLAWIVSRKKPLASRPVRLRLPFNNGQETNELELMNATFDEKSRELVTLAKGRGLSDCGIQARWRFDGQRFRLVRYAAEPTCDNWHGPDAWPTLWITR ... 5.86

[Q] What does the data say about its total protein half-life in vivo? Entry: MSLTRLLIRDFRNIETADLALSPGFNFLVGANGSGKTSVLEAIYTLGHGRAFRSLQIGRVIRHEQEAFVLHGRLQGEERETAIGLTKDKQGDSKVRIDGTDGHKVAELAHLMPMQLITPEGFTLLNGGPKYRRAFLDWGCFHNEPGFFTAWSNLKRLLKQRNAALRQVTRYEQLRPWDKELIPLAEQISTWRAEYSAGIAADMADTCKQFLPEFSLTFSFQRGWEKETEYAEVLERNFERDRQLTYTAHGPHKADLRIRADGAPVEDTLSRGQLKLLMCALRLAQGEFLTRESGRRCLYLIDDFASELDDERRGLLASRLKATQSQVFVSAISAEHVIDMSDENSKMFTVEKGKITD [P0A7H0]
[A] 5.07

[Q] What does the data say about its total protein half-life in vivo? Entry: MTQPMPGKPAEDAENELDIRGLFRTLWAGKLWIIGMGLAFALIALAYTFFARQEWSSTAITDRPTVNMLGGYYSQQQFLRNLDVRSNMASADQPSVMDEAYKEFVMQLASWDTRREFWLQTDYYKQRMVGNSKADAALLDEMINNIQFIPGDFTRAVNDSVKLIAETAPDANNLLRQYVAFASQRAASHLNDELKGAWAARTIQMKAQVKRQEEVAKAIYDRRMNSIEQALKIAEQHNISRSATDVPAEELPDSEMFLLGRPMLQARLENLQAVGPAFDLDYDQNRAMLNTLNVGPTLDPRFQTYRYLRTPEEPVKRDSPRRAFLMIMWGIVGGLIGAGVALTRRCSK [P0AG00]
[A] 6.38

* * *

Experiment: total protein half-life in vivo (active degradation + dilution); higher = more stable protein
Settings: E. coli NCM3722 delta-hslV; growth: N-lim chemostat; doubling time 6 h
observed.property: total protein half-life in vivo (h)
Kindly answer with a numeric value in h, unit omitted.

MPLSAQQLAAQKNLSYVLAEKLAQRILKGEYEPGTILPGEIELGEQFGVSRTAVREAVKTLTAKGMVLPRPRIGTRVMPQSNWNFLDQELLTWWMTEENFHQVIDHFLVMRICLEPQACLLAATVGTAEQKAHLNTLMAEMAALKENFRRERWIEVDMAWHEHIYEMSANPFLTSFASLFHSVYHTYFTSITSDTVIKLDLHQAIVDAIIQSDGDAAFKACQALLRSPDK ... 5.31

For the next question, use this sequence.
[Q] What does the data say about its total protein half-life in vivo? Entry: `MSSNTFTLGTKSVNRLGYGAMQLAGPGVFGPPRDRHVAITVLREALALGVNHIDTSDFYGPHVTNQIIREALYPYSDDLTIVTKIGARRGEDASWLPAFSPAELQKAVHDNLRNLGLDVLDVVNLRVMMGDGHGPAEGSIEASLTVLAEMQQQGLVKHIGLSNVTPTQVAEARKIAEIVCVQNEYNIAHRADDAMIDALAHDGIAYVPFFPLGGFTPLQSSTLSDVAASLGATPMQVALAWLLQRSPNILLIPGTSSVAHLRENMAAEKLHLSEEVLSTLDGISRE`
[A] 4.87

* * *

Measured total protein half-life in vivo, listed per entry for reference.
Experiment: total protein half-life in vivo (active degradation + dilution); higher = more stable protein
Conditions: wild type E. coli NCM3722; growth: P-lim chemostat; doubling time 6 h
Kindly answer with a numeric value in h, unit omitted.

Example entries begin here.
MARINRISITLCALLFTTLPLTPMAHASKQARESSATTHITKKADKKKSTATTKKTQKTAKKAASKSTTKSKTASSVKKSSITASKNAKTRSKHAVNKTASASFTEKCTKRKGYKSHCVKVKNAASGTLADAHKAKVQKATKVAMNKLMQQIGKPYRWGGSSPRTGFDCSGLVYYAYKDLVKIRIPRTANEMYHLRDAAPIERSELKNGDLVFFRTQGRGTADHVGVYVGNGKFIQSPRTGQEIQITSLSEDYWQRHYVGARRVMTPKTLR ... 3.69
MKITLSKRIGLLAILLPCALALSTTVHAETNKLVIESGDSAQSRQHAAMEKEQWNDTRNLRQKVNKRTEKEWDKADAAFDNRDKCEQSANINAYWEPNTLRCLDRRTGRVITP ... 5.78
MSQFFYIHPDNPQQRLINQAVEIVRKGGVIVYPTDSGYALGCKIEDKNAMERICRIRQLPDGHNFTLMCRDLSELSTYSFVDNVAFRLMKNNTPGNYTFILKGTKEVPRRLLQEKRKTIGMRVPSNPIAQALLEALGEPMLSTSLMLPGSEFTESDPEEIKDRLEKQVDLIIHGGYLGQKPTTVIDLTDDTPVVVREGVGDVKPFL [P0AFR4] ... 4.64
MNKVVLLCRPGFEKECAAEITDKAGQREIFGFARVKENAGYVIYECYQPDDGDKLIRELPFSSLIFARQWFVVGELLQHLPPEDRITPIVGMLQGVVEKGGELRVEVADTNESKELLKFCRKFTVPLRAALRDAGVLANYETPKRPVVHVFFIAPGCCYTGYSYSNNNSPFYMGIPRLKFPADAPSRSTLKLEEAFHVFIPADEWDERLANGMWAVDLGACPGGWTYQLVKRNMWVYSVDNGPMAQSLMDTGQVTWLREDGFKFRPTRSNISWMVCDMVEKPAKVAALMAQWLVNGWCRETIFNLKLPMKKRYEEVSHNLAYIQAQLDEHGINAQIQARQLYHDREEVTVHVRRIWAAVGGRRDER [P0ADR6] ... 5.72

[Q] What does the data say about its total protein half-life in vivo? Entry: `MSLFHLIAPSGYCIKQHAALRGIQRLTDAGHQVNNVEVIARRCERFAGTETERLEDLNSLARLTTPNTIVLAVRGGYGASRLLADIDWQALVARQQHDPLLICGHSDFTAIQCGLLAHGNVITFSGPMLVANFGADELNAFTEHHFWLALRNETFTIEWQGEGPTCRAEGTLWGGNLAMLISLIGTPWMPKIENGILVLEDINEHPFRVERMLLQLYHAGILPRQKAIILGSFSGSTPNDYDAGYNLESVYAFLRSRLSIPLITGLDFGHEQRTVTLPLGAHAILNNTREGTQLTISGHPVLKM`
[A] 6.06

[Q] What does the data say about its total protein half-life in vivo? Entry: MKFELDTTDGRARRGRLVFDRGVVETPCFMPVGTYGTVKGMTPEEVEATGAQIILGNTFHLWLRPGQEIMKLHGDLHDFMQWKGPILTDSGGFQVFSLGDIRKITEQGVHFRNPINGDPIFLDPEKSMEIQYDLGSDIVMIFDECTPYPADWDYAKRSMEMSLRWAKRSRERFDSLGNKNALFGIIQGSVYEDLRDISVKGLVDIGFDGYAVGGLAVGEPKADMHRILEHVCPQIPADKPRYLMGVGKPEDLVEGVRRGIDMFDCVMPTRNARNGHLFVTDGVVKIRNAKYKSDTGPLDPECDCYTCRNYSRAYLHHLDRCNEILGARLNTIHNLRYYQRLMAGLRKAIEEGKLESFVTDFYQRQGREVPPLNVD [P0A847]
[A] 6.03
